Biological target: T1, Murine CTGF (Mus musculus, UniProt P29268)
T1 construct: purchased Abbexa
T1 sequence (P29268 26-348): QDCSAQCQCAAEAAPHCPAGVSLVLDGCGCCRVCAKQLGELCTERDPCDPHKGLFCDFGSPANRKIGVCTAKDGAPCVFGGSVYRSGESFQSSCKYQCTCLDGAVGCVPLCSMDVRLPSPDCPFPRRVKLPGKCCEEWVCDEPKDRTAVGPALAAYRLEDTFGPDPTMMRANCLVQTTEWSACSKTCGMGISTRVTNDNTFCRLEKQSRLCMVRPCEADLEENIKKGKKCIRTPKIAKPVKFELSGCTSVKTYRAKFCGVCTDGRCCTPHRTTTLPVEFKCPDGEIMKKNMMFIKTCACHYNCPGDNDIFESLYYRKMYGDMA
Experiment: SPR binding kinetics and affinity, murine CTGF
Conditions: 25° C., 1:1 binding model
Reported values of Murine CTGF kon for individual entries
Please give a number only; it is taken to be in M⁻¹ s⁻¹.

Query :: Give its Murine CTGF kon value. Item: SEQ ID NO: 21: optimized CTGF-binding hNGAL lipocalin mutein (protein, lipocalin mutein) QDSTSDLIPAPPLSKVPLQQNFQDNQFQGKWYVVGLAGNAILREDKQPAKMFATIYELKEDKSYDVTSVRFEAKSCSYTIKTFVPGSQPGEFTAGNIKSAPGQTSTLVRVVSTNYNQHAMVFFKAVRGARESFNIALYGRTKELTSELKENFIRFSKSLGLPENHIVFPVPIDQCIDG
Result :: 228000

Query :: Give its Murine CTGF kon value. Item: SEQ ID NO: 34: optimized CTGF-binding hNGAL lipocalin mutein (protein, lipocalin mutein) QDSTSDLIPAPPLSKVPLQQNFQDNQFQGKWYVVGWAGNVILREDKQPFKMSATIYELKEDKSYDVTEVVFEQKKCHYIIKTFVPGSQPGEFTLGDIKSPPGETSTLVRVVSTNYNQHAMVFFKKVSQNREFFWITLYGRTKELTSELKENFIRFSKSLGLPENHIVFPVPIDQCIDG
Result :: 240000
